Cited source for all entries: PubChem BioAssay (NCI)

- Test method notes: NCI Yeast Anticancer Drug Screen. Data for the bub3 strain (AID 167)
- Test settings: S. cerevisiae bub3 mutant strain, at 50.0 µM, active compounds read high
The panel holds about 79,000 compounds, 15% with a hit somewhere; the sample as a whole holds those more often. Where a SMILES comes first, the peptide text is derived from it. Bridges are numbered along the chain shown (N, C = ends). The star is where a group is joined. Cbz = O=C(OCc1ccccc1)*; OBn = c1ccc(CO*)cc1
Measurement name: growth inhibition (%)
Kindly answer with a numeric value in %, unit omitted.

# count of solved cases: 3
- Molecule: "N#CCCSc1nnc(N)s1"
  growth inhibition (%): -2.95
- Molecule: "CSc1nc(-c2ccc(Cl)cc2)c(C#N)c(=O)n1C1OC(COC(C)=O)C(OC(C)=O)C(OC(C)=O)C1OC(C)=O (stereo not drawn)"
  growth inhibition (%): -36
- Molecule: "Cc1ccc(N=Nc2c(O)n(C)c(=O)n(C)c2=O)cc1C"
  growth inhibition (%): -18.6

Param item = "O=S(=O)(/C=C/c1ccc(Cl)cc1Cl)Cc1ccccc1CS(=O)(=O)/C=C/c1ccc(Cl)cc1Cl" ; retrieve measured growth inhibition.
6.95

Quick check: growth inhibition of O=C1CC2[C@@H](N3CCCC3)CCC(N1Cc1ccccc1)C2(O)O (stereo partly drawn) ?
-19.8

Entry COC(=O)C1CCC(=O)NCCCCC(NC(=O)C(CC(=O)OCc2ccccc2)NC(=O)OCc2ccccc2)C(=O)N1 (stereo not drawn) (Cbz-Asp(OBn)-Lys-Glu-OMe; lactam 2-3; configuration not given here) has what growth inhibition?
28.4

growth inhibition lookup needed for "COC(=O)CCSCCC(=O)OC" , thanks.
1.75

Return reported growth inhibition; argument: "O=C(C(=O)c1cccc(Cl)c1)c1ccccc1"
-15.2

Dear colleague, I am looking for the recorded growth inhibition of the following molecule: "COc1ccc2ccc3c(OC(C)=O)ccc(CCN(C)C(C)=O)c3c2c1OC(C)=O"
2.25

Param item = "NC(N)=NCCCCNCCCN=C(N)N" ; retrieve measured growth inhibition.
-16.4

State the recorded growth inhibition for this entry: CCOC(C)C(=O)C=O (stereo not drawn)
-13.4

For "Cc1ccc2[nH]c(=O)cc(C(F)(F)F)c2c1" , what is its reported growth inhibition?
-15.2

# lookup: growth inhibition of O=C1NC(CN2CCCC(O)C2)C(=O)NC1CN1CCCC(O)C1 (stereo not drawn)
-4.45

Entry "Oc1cccc(CCc2ccccn2)c1" : reported growth inhibition = ?
-3.85

Given the entry "CC1=NC(=Cc2ccccc2O)C(=O)N1n1c(-c2ccccc2)nc2ccccc2c1=O" , report its measured growth inhibition.
42.5
